Hi there, I'd appreciate the recorded Reduktion in % for every entry that follows.
test system: Trichophyton mentagrophytes; assay: Local in vivo efficacy, dermal treatment of guinea pigs infected with Trichophyton mentagrophytes; details: Meerschweinchen, Dermal 5 x 0,1 %; relative to Bifonazol = 100,0

Exercise: Please supply the value of reported Reduktion in % for the item CC(C)=CCC/C(C)=C\COC(Cn1ccnc1)c1ccccn1 (racemic)
Key: 164,2%

Exercise: Give me measured Reduktion in %, please, for this compound: CC(C)=CCC/C(C)=C\COC(Cn1cncn1)c1ccc(Cl)cc1Cl (racemic)
Key: 176,9%

Exercise: Note Reduktion in % for the compound shown: c1ccc(-c2ccc(C(c3ccccc3)n3ccnc3)cc2)cc1 (stereo not drawn) [Bifonazol, reference compound]
Key: 100,0%

Exercise: Retrieve Reduktion in % measured for CC(C)=CCC/C(C)=C\COC(CCn1ccnc1)c1cccs1 (racemic) and print it.
Key: 164,2%

Exercise: Retrieve Reduktion in % measured for CC(C)=CCC/C(C)=C\COC(Cn1ccnc1)c1ccco1 (racemic) and print it.
Key: 127,7%

Exercise: Give the measured Reduktion in % for CC(C)=CCC/C(C)=C\COC(Cn1ccnc1)c1ccc(Cl)cc1Cl (racemic)
Key: 139,3%
